B1: CPEB3 Ribozyme (parent)
chain: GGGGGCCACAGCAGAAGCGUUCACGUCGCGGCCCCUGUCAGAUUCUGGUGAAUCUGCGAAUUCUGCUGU

Variants of: B1
assayExplanation: self-cleavage, relative activity (ratio to wild type); higher = more cleavage; co-transcriptional
endpointName: self-cleavage

- GGGGGCCACAGCAGAAGCGUUCACGUCGCGGCCCCUGUCAGAUUCGGGUGAAUCUGCGAAUUCUGAUGU [U46G C66A]: 0.786
- GGGGGCCACAGCAGAACCGAUCACGUCGCGGCCCCUGUCAGAUUCUGGUGAAUCUGCGAAUUCUGCUGU [G17C U20A]: 0.123
- GGGGGCCACAGCAGAAGCGUACACGUCGCGGCCCCUGUCAGAUUCUGGUGAAUCUGCGAAUUCUGCUGA [U21A U69A]: 1.01
- GGGAGCCACAGCAGAAGCGUUCACGUCGCGGCCCCUGUCAGAUUCUGGUGAUUCUGCGAAUUCUGCUGU [G4A A52U]: 0.882
- GGGGUCCACAGCAGAAGCGUUCACGUCGCGGCCCCUGUCAGAUUCUGGUGAAUCUGAGAAUUCUGCUGU [G5U C57A]: 0.11
- GGGGGUCACAGCAGAAGCGUUCACGUCGCGGCCCCUGUCAGAUUCUGGUGAAUCUGCGAAUUCUGCUAU [C6U G68A]: 1.03
- GGGGGCCACAGCAGAAUCGUUCACGUCGCGGCUCCUGUCAGAUUCUGGUGAAUCUGCGAAUUCUGCUGU [G17U C33U]: 0.347
- GGGGGCCACAGCAGAAGCGAUCACGUCGCGGCCCCUGUCAGAUUCUGGUUAAUCUGCGAAUUCUGCUGU [U20A G50U]: 0.141
- GGGGGCCACAGCAGAAGCGUUCACGUCGCGGCCCCUGUCAGAUUCUGGUGAAUCAGCUAAUUCUGCUGU [U55A G58U]: 0.988
- GGGGGCCACAGCAGAACCGUUCACGUCGCGGCCCCUGUCAGAUUCUGGUGAAGCUGCGAAUUCUGCUGU [G17C U53G]: 0.126
- GGGGGCCACAGCAGAAGCGUUCACGUCGCGGCCCCUAUCAGUUUCUGGUGAAUCUGCGAAUUCUGCUGU [G37A A42U]: 0.275
- GGGGGCCACAGCAGAAGCGUUCAUGUCGCGGCCCCUGUCAGAUUCCGGUGAAUCUGCGAAUUCUGCUGU [C24U U46C]: 0.714
- GGGGGUCACAGCAGAAGCGUUCACGUCGCGGCCCCUGUCAGAUUCUGGUGAACCUGCGAAUUCUGCUGU [C6U U53C]: 0.914
- GCGGGCCACAGCAGAAGCGUUCACGUCGCGGCCCCUGUCAGAUUCUGGUGAAUCUGCGAGUUCUGCUGU [G2C A60G]: 0.0533
- GGGGGCCACAACAAAAGCGUUCACGUCGCGGCCCCUGUCAGAUUCUGGUGAAUCUGCGAAUUCUGCUGU [G11A G14A]: 0.119
- GUGGGCCACAGCAGAAGCGUUCACGUCGCGGCCCCUGUCAGAUUCUGGUGAAUCUGCGAAUUCUGCUCU [G2U G68C]: 0.1
- GGGGGCCACAGCAGAAGCGUUGACGUCGCGGCCCCUGUCAGAUUCUGGGGAAUCUGCGAAUUCUGCUGU [C22G U49G]: 0.153
- GGGGGCCACAGCAGAAGCGUUCACGUCGCGGCCUCUGUCAGAUUCUGGUGAAUCUGCGAAUUGUGCUGU [C34U C63G]: 0.78
- GGGGGCCACAGCAGAAGCGAUCACGUCGCGGCCCCUGUCAGAUUCUGGUGAAUCUACGAAUUCUGCUGU [U20A G56A]: 0.184
- GGGGGCCACAGCAGAAGCGUUCACGUCGCGGCGCCUGUCAGAUCCUGGUGAAUCUGCGAAUUCUGCUGU [C33G U44C]: 0.576
- GGGGGCCACAGCCGAAGCGUUCACGUCGCGGCCCCUGUCAGAUUCUGGUGAAUCUGCGAAUUGUGCUGU [A13C C63G]: 0.366
- GGGGGCCACAGCAGAAGCGUUCACGUCGCGGCCCCUGUCAGAUUUUGGUGAAUCUGCGAAUUAUGCUGU [C45U C63A]: 0.838
- GGGGGCCACAGCAGAAGCGUCCACGUCGCGGCCACUGUCAGAUUCUGGUGAAUCUGCGAAUUCUGCUGU [U21C C34A]: 0.303
- GGGGGCCACAGCAGAAGCGUUCACGUCGCGGACCCUGUCAGAUUCUGGUGAAUCUGCGAUUUCUGCUGU [C32A A60U]: 0.257
- GGGGGCCACAGAAGAAGCGUUCACGUCGCGGCCCCUGUCAGAUUCUGGUGAAUCUGCGAAUUCUGCUGC [C12A U69C]: 0.981
- GGGCGCCACAGCAGAAGCGUUCACGUCGCGGCCCCUGUCUGAUUCUGGUGAAUCUGCGAAUUCUGCUGU [G4C A40U]: 0.228
- GGGGGCCACAGCAGAAGCGUUCACGUCGCGGCCCCUGUCAGAUUCUGUUGAAUCGGCGAAUUCUGCUGU [G48U U55G]: 0.968
- GGGGGACACAGCAGAACCGUUCACGUCGCGGCCCCUGUCAGAUUCUGGUGAAUCUGCGAAUUCUGCUGU [C6A G17C]: 0.115
- GGGGGCCACAGCAGAAGCGUUCACGUCGCGGCCCCUGUCACAUUCUGGUGAAACUGCGAAUUCUGCUGU [G41C U53A]: 0.463
- GGGGGCCACUGCAGAAGCGUUCACGUCGCGGCCCCUGUCAGAUUCUGGAGAAUCUGCGAAUUCUGCUGU [A10U U49A]: 0.989
- GGGGGCCACAGCAGAAGCGUUCACGUCGCGGCCCCUGUCAGUUUCUGGUGAAUCUGCGAAUUCUGCUGU [A42U]: 0.965
- GGGGGCCACAGCAGAAGCGUUCACUUCGCGGCCCCUGUCAGAUUCUGGUGAAUCUGCGAAUUCUGCUGC [G25U U69C]: 0.263
- GGGGGCCACAGCAGAAGCGUUCACGUCGCGGCCCCUGUCAGAUUGUGGUGAAUCUGCGAAUUCUGCCGU [C45G U67C]: 0.917
- GGGGGCCACACCAGAAGCGUUCACGUCGCGGCCCCUGUCAGAUACUGGUGAAUCUGCGAAUUCUGCUGU [G11C U44A]: 0.636
- GGGGGCCACAGCAGAGGCGUUCACGUCGAGGCCCCUGUCAGAUUCUGGUGAAUCUGCGAAUUCUGCUGU [A16G C29A]: 0.224
- GGGGGCCACAGCAGAAGCGUUCACGUCGCGGCCCCUGUCAGAUUCUGGCGAAGCUGCGAAUUCUGCUGU [U49C U53G]: 0.859
- GGGGGCCACAGCAGAAGCGUUCACGUCGCGGCCCCUGUCAGAUUCUGGUGAAUCUGCGCAUUCUCCUGU [A59C G65C]: 0.374
- GGGGGCAACAGCAGAAGCGUUCACGUCGCGGCCCCUGUCAGAUUCUGGAGAAUCUGCGAAUUCUGCUGU [C7A U49A]: 0.601
- GGGGGCCACACCAGAAGCCUUCACGUCGCGGCCCCUGUCAGAUUCUGGUGAAUCUGCGAAUUCUGCUGU [G11C G19C]: 0.145
- GGGGGCCACAGCGGAAGCGUUCACGUCGCGGCCCCUGUCAGAUUCUGGUGAGUCUGCGAAUUCUGCUGU [A13G A52G]: 1.02
- GGGCGCCACAGCAGAAGCGUUCACGUCGCGGCCCCAGUCAGAUUCUGGUGAAUCUGCGAAUUCUGCUGU [G4C U36A]: 0.0958
- GGGGGCCACAGCAGAAGCGUUCACGUCGCGGCCCCUGUCAGAUUCUACUGAAUCUGCGAAUUCUGCUGU [G47A G48C]: 1.03
- GGGGGCCACAGCAGAAGCGUUCACGUCGCGGCCCCUGUCAGAUUUUGGUGAAUCUGCGAAUUCUGCUGU [C45U]: 0.996
- GGGGGCCACAGCAGAAGCGUUCACGUCGCGGCCCCCGUCAGAUCCUGGUGAAUCUGCGAAUUCUGCUGU [U36C U44C]: 0.688
- GGGGGCCACAGCAGAAGCGUUCACGUCGGGGCCCCUGUCAGAUUCUGGUGAAUCUGCUAAUUCUGCUGU [C29G G58U]: 0.558
- GGUGGCCACAGCAGAAGCGUUCACGUCGCGGCCCCCGUCAGAUUCUGGUGAAUCUGCGAAUUCUGCUGU [G3U U36C]: 0.122
- GGGGGCAACAGCAGAAGCGUUCACGUCGCGGCCCCUGUCAGAUUCUGGUGAAGCUGCGAAUUCUGCUGU [C7A U53G]: 0.177
- UGGCGCCACAGCAGAAGCGUUCACGUCGCGGCCCCUGUCAGAUUCUGGUGAAUCUGCGAAUUCUGCUGU [G1U G4C]: 0.0734
- UGGGGCCACAGCAGAAGCGUUCACGUCGCGGCCCCUGUCAGAUUCUGGUGAAUCUGCGAAUACUGCUGU [G1U U62A]: 0.137
- GGGGGCCACAGCAGAAGCGUUCAUGUCGCGACCCCUGUCAGAUUCUGGUGAAUCUGCGAAUUCUGCUGU [C24U G31A]: 0.316
- GGGGGCCACAGCAGAAGCGUUCACGUCGCGGUCCCUGUCAGAUUCUGGUGAAUCGGCGAAUUCUGCUGU [C32U U55G]: 0.896
- GGGGGCCACAGCAGAAGCGUUCACGUCGCGGCCCCUGUCAGAUUGUGGUGUAUCUGCGAAUUCUGCUGU [C45G A51U]: 1.03
- GGGGGCCACAGCUGACGCGUUCACGUCGCGGCCCCUGUCAGAUUCUGGUGAAUCUGCGAAUUCUGCUGU [A13U A16C]: 0.14
- GGGGGCUACAGCAGAAGCGUUCACGUCGCGGCCCCUGUCAGAUUCUGGUGAAUCUGCGAAUUAUGCUGU [C7U C63A]: 0.577
- GGGGGGCACAGCAGAAGCGUUCACGUCGCGGCCCCUGUCAGAUUCUGGUGAAUUUGCGAAUUCUGCUGU [C6G C54U]: 0.398
- GGGGGCCACAGCAGAAGCGUGCACGUGGCGGCCCCUGUCAGAUUCUGGUGAAUCUGCGAAUUCUGCUGU [U21G C27G]: 0.227
- GGGGGCCACAGCAGAAGCGUUCACGUCGCGGCCCCUGUCAGAUUCUGGUGAAUCUGCGAAUUCUGAGGU [C66A U67G]: 0.891
- GGGGGCCACAGCAGAAGCGUUCACGUCGCGGCCCCUGUCAGAUUGUGGUGAAUCUGCAAAUUCUGCUGU [C45G G58A]: 0.919
- GGGGGCCACAGCAGAAGCGGUCACGUUGCGGCCCCUGUCAGAUUCUGGUGAAUCUGCGAAUUCUGCUGU [U20G C27U]: 0.0848
- GGGGGCCACUGCAGAAGCGCUCACGUCGCGGCCCCUGUCAGAUUCUGGUGAAUCUGCGAAUUCUGCUGU [A10U U20C]: 0.232
- GAGGGCCACAGCAGAAGCGUUCACGUCGCGGCCCCUAUCAGAUUCUGGUGAAUCUGCGAAUUCUGCUGU [G2A G37A]: 0.0498
- GGGGGCCCCAGCAGAAGCGCUCACGUCGCGGCCCCUGUCAGAUUCUGGUGAAUCUGCGAAUUCUGCUGU [A8C U20C]: 0.166
- GGGGGCCACAGCAGAAGCGUUCACGUCGCGGCCCCUGUCAGAUUCUGGUGAAUCUGCGAAUCCUGAUGU [U62C C66A]: 0.5
- GGGGGCCACAGCAGAAGCGUUCACGUCGCGGCCCCUGUCAGAUUCUGGUGGAUCUGCGAAUGCUGCUGU [A51G U62G]: 0.89
- GGGGGCCACAGCAGAAGCGUUCACGUCGGGGCCCCUGUCAGAUUCUGCUGAAUCUGCGAAUUCUGCUGU [C29G G48C]: 0.698
- GGGGGCCACAGCAGAAGCGUUCACGUCGCGGCCUCUCUCAGAUUCUGGUGAAUCUGCGAAUUCUGCUGU [C34U G37C]: 0.226
- GGGGGCCACAGCAGAAGCGUUGACGUCGCGGCCCCUGUCAGAUUCAGGUGAAUCUGCGAAUUCUGCUGU [C22G U46A]: 0.205
- GGGGGCCACAGCAGAAGCGUUCACGUCGCGGCACCCGUCAGAUUCUGGUGAAUCUGCGAAUUCUGCUGU [C33A U36C]: 0.785
- GGGGGCCACAGCAGAAGCGUACACGUCGCGGCCCCUGUCAGAUUCUGGUGCAUCUGCGAAUUCUGCUGU [U21A A51C]: 0.953
- GGGGGCCACAGCAGAAUCGUUCACGUCGCGGCCCCUGUCAAAUUCUGGUGAAUCUGCGAAUUCUGCUGU [G17U G41A]: 0.152
- GGUGGCCACAGCAGAAGCGUACACGUCGCGGCCCCUGUCAGAUUCUGGUGAAUCUGCGAAUUCUGCUGU [G3U U21A]: 0.157
- GGGGGCCACAGCAGAAGCGUUCACGUCGCGCCCCCUGUCGGAUUCUGGUGAAUCUGCGAAUUCUGCUGU [G31C A40G]: 0.229
- GGGGGCCACAGCAGAAGCGUUCACGUCGCGGCCCCUGUCAGAUUCUGGUGAAUCUUCGAAUUCCGCUGU [G56U U64C]: 0.762
- GGGGGCCACAGCAGAAGCGUUCACGUCGCAGGCCCUGUCAGAUUCUGGUGAAUCUGCGAAUUCUGCUGU [G30A C32G]: 0.261
- GGGGGCGACAGCAGAAGCGUUCACGUCGCGGCCCCUGUCAGAUCCUGGUGAAUCUGCGAAUUCUGCUGU [C7G U44C]: 0.282
- GGGGGCCACAGCCGAAGCGUUCACGUCGCGGCCCUUGUCAGAUUCUGGUGAAUCUGCGAAUUCUGCUGU [A13C C35U]: 0.751
- GGGAGCCACAGCAGAAGCGUUCACGUCGCGGCCCCUGUCAGAGUCUGGUGAAUCUGCGAAUUCUGCUGU [G4A U43G]: 0.511
- GGGGGCCACAGCAGAAGCGUUCACGUCGCGGCCCCUGUGAGAUUCUGGUGUAUCUGCGAAUUCUGCUGU [C39G A51U]: 0.853
- GGGGGCCACAGCAGAAGCGUUCACGUCGCGGCACCUGUCAGAUUCUGGUGAAUCUGCUAAUUCUGCUGU [C33A G58U]: 0.881
- GGGGGCCACAGCUGAAGCGUUCACGUCGAGGCCCCUGUCAGAUUCUGGUGAAUCUGCGAAUUCUGCUGU [A13U C29A]: 0.178
